Record set: pKi | D(4) dopamine receptor (Homo sapiens, UniProt P21917) | literature, multiple sources.
pKi: −log10 of the molar value.
quantity_name: pKi

These solved cases illustrate the format of a correct answer.
>  <compound>
O=C1CCc2ccc(OCCCCN3CCN(c4ccc(O)c5c4OCCO5)CC3)cc2N1

>  <tested_on>
D(4) dopamine receptor (Homo sapiens, UniProt P21917)
Sequence (P21917 whole entry): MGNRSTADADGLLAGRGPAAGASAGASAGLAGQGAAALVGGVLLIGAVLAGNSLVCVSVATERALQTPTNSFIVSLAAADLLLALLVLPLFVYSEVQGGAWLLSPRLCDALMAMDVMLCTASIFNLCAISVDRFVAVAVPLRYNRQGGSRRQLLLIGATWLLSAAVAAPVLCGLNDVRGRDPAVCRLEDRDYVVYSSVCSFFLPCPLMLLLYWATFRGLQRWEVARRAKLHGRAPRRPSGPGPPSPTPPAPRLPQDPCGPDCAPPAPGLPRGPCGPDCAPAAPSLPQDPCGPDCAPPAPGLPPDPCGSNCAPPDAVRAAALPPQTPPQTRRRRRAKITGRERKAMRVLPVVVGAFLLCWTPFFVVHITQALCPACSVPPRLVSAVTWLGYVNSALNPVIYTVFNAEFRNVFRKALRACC

>  <pKi>
6.52

$$$$
>  <compound>
OC1(c2ccc(F)cc2)CCN(Cc2c[nH]c3ccccc23)CC1

>  <tested_on>
D(4) dopamine receptor (Homo sapiens, UniProt P21917)

>  <pKi>
5.22

$$$$
>  <compound>
c1ccc2c(c1)CCN(Cc1c[nH]c3ncccc13)C2

>  <tested_on>
D(4) dopamine receptor (Homo sapiens, UniProt P21917)

>  <pKi>
8.15

$$$$
>  <compound>
COc1cccc(C(=O)CCCCN2CCN(c3ccccc3OC)CC2)c1

>  <tested_on>
D(4) dopamine receptor (Homo sapiens, UniProt P21917)

>  <pKi>
7.37

$$$$
>  <compound>
CCOc1ccccc1N1CCN(CCCCc2cc(-c3ccccc3)no2)CC1

>  <tested_on>
D(4) dopamine receptor (Homo sapiens, UniProt P21917)

>  <pKi>
7.47

$$$$

P = O=C(NC1CCN(CCc2ccccc2)CC1)c1ccc2ccccc2c1
Q = O=C(CCCCCCCCCCCCCCC(=O)OC1(c2ccc(Cl)cc2)CCN(CCCC(=O)c2ccc(F)cc2)CC1)OC1(c2ccc(Cl)cc2)CCN(CCCC(=O)c2ccc(F)cc2)CC1
Request: Please indicate which entry, P or Q , has the lower recorded pKi value. # answer = label of selected item
Response: Q

* * *

Record set: pKi | D(4) dopamine receptor (Homo sapiens, UniProt P21917) | literature, multiple sources.
pKi: −log10 of the molar value.
quantity_name: pKi

These solved cases illustrate the format of a correct answer.
>  <compound>
CC(C)(C)C(=O)NCCCCCN1CCN(c2ccc(Cl)cc2)CC1

>  <endpoint_result>
6.90

$$$$
>  <compound>
O=C(NCCCN1CCN(c2cccc(Cl)c2Cl)CC1)C1c2ccccc2-c2ccccc21

>  <endpoint_result>
5.94

$$$$
>  <compound>
COc1cc(CN2CCN(c3ccccc3OC)CC2)ccc1OCc1cn(CCOCCOCCn2cc(COc3ccc(CN4CCN(c5ccccc5OC)CC4)cc3OC)nn2)nn1

>  <endpoint_result>
8.17

$$$$
>  <compound>
CN1CCc2ccccc2Cc2[nH]c3ccccc3c2CC1

>  <endpoint_result>
6.97

$$$$
>  <compound>
COc1ccc(C(=O)NCCCCN2CCc3cc(OC)c(O)cc3C2)cc1

>  <endpoint_result>
6.25

$$$$

a = CCCN(CCCCNC(=O)/N=N/c1cc(F)c(F)c(F)c1)C1Cc2ccccc2C1
b = Clc1cccc(N2CCN(CCCCc3cn(-c4ccn5nccc5c4)nn3)CC2)c1Cl
c = COc1cc(NC(=O)C2CC2)c(Cl)cc1C(=O)N[C@H]1CCN(Cc2ccccc2)C1
d = CCCN(CCCCn1cc(-c2ccc(-c3ccccc3)cc2)nn1)C1CC=C(C#C[Si](C)(C)C)CC1 (stereo not given)
Request: Please order the records by their reported pKi, lowest number first. In plain terms: list the labels in the order you were asked to.
Response: d, b, a, c
(d: 5.74, b: 7.12, a: 7.40, c: 8.68)
